Ref: ChEMBL document CHEMBL1150522

tested on: Candida albicans; assay: Minimum inhibitory concentration against Candida albicans (579a) in the presence of serum; type: functional
Endpoint: MIC (µg/mL)
Give just the numeric value; µg/mL need not be written.

{"columns": ["Structure Notation", "Test System", "Measure Unit", "Experimental Value"],
 "data": [
  ["CCCCC/C=C/C=C/[C@@H](O)C/C=C/C=C/C(=O)O[C@@H]1[C@@H](O)[C@H](c2c(O)cc(O)cc2CO)O[C@H](CO)[C@H]1O[C@@H]1O[C@H](COC(=O)c2cccc(-c3ccc(OC)cc3)c2)[C@H](O)[C@H](O)[C@H]1O[C@@H]1O[C@H](CO)[C@H](O)[C@H](O)[C@H]1O", "Candida albicans", "µg/mL", 0.78],
  ["CCCCC/C=C/C=C/[C@@H](O)C/C=C/C=C/C(=O)O[C@@H]1[C@@H](O)[C@H](c2c(O)cc(O)cc2CO)O[C@H](CO)[C@H]1O[C@@H]1O[C@H](COC(=O)c2ccc(Oc3ccccc3)cc2)[C@H](O)[C@H](O)[C@H]1O[C@@H]1O[C@H](CO)[C@H](O)[C@H](O)[C@H]1O", "Candida albicans", "µg/mL", 1.56]
]}

Task: Name the reported MIC value associated with the compound CCCCC/C=C/C=C/[C@@H](O)C/C=C/C=C/C(=O)O[C@@H]1[C@@H](O)[C@H](c2c(O)cc(O)cc2CO)O[C@H](CO)[C@H]1O[C@@H]1O[C@H](COC(=O)c2ccc3c(c2)-c2ccccc2-3)[C@H](O)[C@H](O)[C@H]1O[C@@H]1O[C@H](CO)[C@H](O)[C@H](O)[C@H]1O
Output: 0.39

Task: Entry under review: CCCCC/C=C/C=C/[C@@H](O)C/C=C/C=C/C(=O)O[C@@H]1[C@@H](O)[C@H](c2c(O)cc(O)cc2CO)O[C@H](CO)[C@H]1O[C@@H]1O[C@H](COC(=O)c2ccc(-c3ccc(CC)cc3)cc2)[C@H](O)[C@H](O)[C@H]1O[C@@H]1O[C@H](CO)[C@H](O)[C@H](O)[C@H]1O . Reported MIC?
Output: 0.2
